Hey, just so you know, these numbers are from ChEMBL document CHEMBL1201862.

Entries and their GI50
Tested on: SW-620
Experiment: NCI tumour cell line growth inhibition, 48 h
The source made the active and inactive calls. Cut-off read from the data, not from the text of the source: active = GI50 up to about 1.1 µM and inactive = higher.

The examples below pair each entry with its known result.
compound	assay value
NC(=O)c1coc(C2OC(CO)C(O)C2O)n1 (stereo not given)	> 100 µM (inactive)
OCC(O)COCn1nncc1Cn1ncc2c(SCc3ccccc3)ncnc21 (stereo not given)	> 100 µM (inactive)
CCCCCCCCCCCCCCCCCCNC(=S)N/C=C1\C(=O)Nc2ccccc2C1=O	19.5 µM (inactive)

Query :: Hi! What's the reported GI50 for COc1ccccc1/C=C/c1nc2ccccc2o1 on SW-620?
Result :: > 10 µM (inactive)

Query :: Notebook entry, SW-620 assay: GI50 of NC(=S)N1N=C(c2ccc3c(c2)CCC3)CC1c1ccccc1 (stereo not given) = ?
Result :: 33.8 µM (inactive)

Query :: # query: GI50 | item Cc1ccc(/N=N/c2c(O)c3ccccc3[nH]c2=O)c(S(=O)(=O)N(C)C)c1 | system: SW-620
Result :: > 100 µM (inactive)

Query :: Form field - read-out: GI50; system: SW-620; submitted item: O=C(NC1C(O)C(O)C(CO)OC1n1cc(F)c(=O)[nH]c1=O)OCc1ccccc1 (stereo not given)
Result :: > 100 µM (inactive)
